The reported measurements were obtained from PubChem BioAssay (NCI).

TGI by entry:
# System: HOP-92 NSCLC
# TEST_SUMMARY: NCI tumour cell line growth inhibition, 48 h

MOLECULE	MEASURED_ON	TGI
O=C(C[P+](c1ccccc1)(c1ccccc1)c1ccccc1)C[P+](c1ccccc1)(c1ccccc1)c1ccccc1	HOP-92 NSCLC	0.294 µM
CCN(CC)c1ccc2cc(C(=O)Nc3ccc(C)cc3)c(=N)oc2c1	HOP-92 NSCLC	> 100 µM
O=S(=O)(/N=C(\NO)Nc1ccc(Cl)cc1)c1ccccc1	HOP-92 NSCLC	22.4 µM
O=C1CCCCC/C1=C\c1ccccc1	HOP-92 NSCLC	> 100 µM

**Query** Answer with the recorded TGI for the molecule listed here: "O=C(C/C(CCC(=O)N(Cc1ccccc1)Cc1ccccc1)=N/Nc1ccc([N+](=O)[O-])cc1[N+](=O)[O-])c1ccccc1"
**Result** > 100 µM

**Query** Answer with the recorded TGI for the molecule listed here: "C=C(C)C(=O)O[C@@H]1C/C(C)=C\[C@H](OC(C)=O)C[C@](C)(O)/C=C2/OC(=O)C(COC(C)=O)=C21"
**Result** 37.5 µM

**Query** Answer with the recorded TGI for the molecule listed here: "CC(C)(C)OC(=O)c1cccnc1/C=N/O"
**Result** > 100 µM

**Query** Answer with the recorded TGI for the molecule listed here: "CC1C2=C(CCCC2=O)N(c2ccc(Cl)cc2)C2=C1C(=O)CCC2"
**Result** > 100 µM

**Query** Answer with the recorded TGI for the molecule listed here: "COc1ccc(C(=O)N/N=C/c2c(C)n(C)n(-c3ccccc3)c2=O)cc1"
**Result** > 100 µM

**Query** Answer with the recorded TGI for the molecule listed here: COc1nc2c(c(=O)n1C)N=C(c1ccc(Cl)cc1)CC(c1ccccc1)N2 (configuration not stated)
**Result** > 100 µM

**Query** Answer with the recorded TGI for the molecule listed here: O=C1c2ccccc2C(=O)c2c(NCC3CO3)ccc(NCC3CO3)c21 (configuration not stated)
**Result** 38 µM

**Query** Answer with the recorded TGI for the molecule listed here: CC1(C)CCCCCC(C)(CCCO)C1=O (configuration not stated)
**Result** > 100 µM

* * *

# System: M14 melanoma
# TEST_SUMMARY: NCI tumour cell line growth inhibition, 48 h
TGI by entry:

Recorded TGI, per entry:
MOLECULE	TGI
Clc1ccccc1C(Nc1ncccn1)Nc1ncccn1	> 100 µM
O=C1C2C3C=C4c5ccccc5N(c5ccccc5)C4(C2C(=O)N1c1ccc(Br)cc1)[C@H]1C(=O)N(c2ccc(Br)cc2)C(=O)[C@@H]31 (some centres undefined)	> 100 µM

**Query** Answer with the recorded TGI for the molecule listed here: "Nc1nc(=O)n([C@@H]2CS[C@H](CO)O2)cc1F"
**Result** > 100 µM

**Query** Answer with the recorded TGI for the molecule listed here: "CCOC(=O)c1cnn2c3ccccc3n(S(=O)(=O)c3ccc(OC)cc3)c12"
**Result** > 100 µM

**Query** Answer with the recorded TGI for the molecule listed here: "CC(C)(C)OC(=O)CN1CCN(CC(=O)N2CCN(C(=O)OCc3ccccc3)CC2)CCN(CC(=O)OC(C)(C)C)CCN(CC(=O)N2CCN(C(=O)OCc3ccccc3)CC2)CC1"
**Result** 14.3 µM

**Query** Answer with the recorded TGI for the molecule listed here: "Cc1nc2sccn2c1C(=O)NC(=O)Nc1ccc(Cl)cc1"
**Result** > 100 µM

**Query** Answer with the recorded TGI for the molecule listed here: "ClCc1cccc(CSc2ncnc3c2ncn3Cc2cccc(CCl)c2)c1"
**Result** 3.23 µM

**Query** Answer with the recorded TGI for the molecule listed here: "C[C@@H]1COCCN1c1cc(C2([S@@](C)(=N)=O)CC2)nc(-c2ccnc3[nH]ccc23)n1"
**Result** 26.4 µM

**Query** Answer with the recorded TGI for the molecule listed here: "Cc1cc(Cl)ccc1Nc1nc(C(F)(F)F)ccc1C(=O)N/N=C/c1ccccc1Cl"
**Result** 7.83 µM

**Query** Answer with the recorded TGI for the molecule listed here: "COC(=O)/C=C(\S/C=C(/c1ccccc1)N1CCn2c(C(=O)c3ccccc3)c(C(=O)OC)c(C(=O)OC)c21)C(=O)OC"
**Result** 5.83 µM

**Query** Answer with the recorded TGI for the molecule listed here: "CC1=C[C@H]2C[C@H](C)[C@H]3CC[C@H](C)[C@]4(C1)C(=O)C(O)=C(C)C(=O)[C@@]324"
**Result** > 100 µM

* * *

TGI by entry:
# Tested on: CCRF-CEM leukemia
# TEST_SUMMARY: NCI tumour cell line growth inhibition, 48 h

COMPOUND	TGI
CCOC(=O)C(O)(C(=O)OCC)c1cc(C(C)(C)C)c(O)c(C(C)(C)C)c1	> 100 µM
O=S(=O)(Nc1ccc(F)c(Cl)c1)c1ccc(-c2cnc(C3CC3)o2)cc1	28.9 µM

**Query** Report its TGI with CCRF-CEM leukemia as the test system: C=CCOc1ccccc1C1(O)c2ccccc2C2=NCCCN21 (stereo not drawn)
**Result** > 100 µM

* * *

# Test system: K-562 leukemia
# TEST_SUMMARY: NCI tumour cell line growth inhibition, 48 h
TGI by entry:

COMPOUND	TGI
CCOC(=O)C(CNc1ccc(O)cc1)NC(=O)c1ccccc1 (stereo not drawn)	> 100 µM

**Query** Answer with the recorded TGI for the compound listed here: "CC[N+](C)(CC)CC(C)(C)C(=O)/C=C/c1ccc(/C=C/C(=O)C(C)(C)C[N+](C)(CC)CC)cc1"
**Result** > 100 µM

**Query** Answer with the recorded TGI for the compound listed here: COc1cccc2c1C(=O)OC2c1cccc2ccccc12 (stereo not drawn)
**Result** > 100 µM

* * *

TGI by entry:
# Tested on: IGROV1 ovarian
# TEST_SUMMARY: NCI tumour cell line growth inhibition, 48 h

Recorded TGI, per entry:
COMPOUND	TGI
c1ccc([As]=[As]c2ccccc2)cc1 (stereo unspecified)	2.76 µM
Cc1ccc2oc3c(c(Br)c(Br)n3C)c(=O)c2c1	> 100 µM

**Query** Report its TGI with IGROV1 ovarian as the test system: "O=C(N/N=C/c1cc(Cl)cc(Cl)c1[O-])c1ccccc1.O=C(N/N=C/c1cc(Cl)cc(Cl)c1[O-])c1ccccc1.[Co+2]"
**Result** > 100 µM

**Query** Report its TGI with IGROV1 ovarian as the test system: O=C1CSC2=NC3=C(CSC/C3=C\c3ccccc3)C(c3ccccc3)N12 (stereo unspecified)
**Result** > 100 µM

**Query** Report its TGI with IGROV1 ovarian as the test system: "NNC(=O)c1ccc(OCc2nc3ccccc3[nH]2)cc1"
**Result** > 100 µM

**Query** Report its TGI with IGROV1 ovarian as the test system: "CCS(=O)(=O)c1ccc(OC)c(Nc2ncc(-c3ccccc3Cl)o2)c1"
**Result** > 25 µM

**Query** Report its TGI with IGROV1 ovarian as the test system: "Cc1ccc(-c2nc([P+](c3ccccc3)(c3ccccc3)c3ccccc3)c(Nc3ccccc3)o2)cc1"
**Result** 2.08 µM

**Query** Report its TGI with IGROV1 ovarian as the test system: "NC(=Nc1cccc(Cl)c1)c1ccccc1N"
**Result** > 100 µM

**Query** Report its TGI with IGROV1 ovarian as the test system: "c1ccc2c(c1)ccn1ccc3c4ccccc4nc-3c21"
**Result** 2.8 µM

**Query** Report its TGI with IGROV1 ovarian as the test system: OC12c3ccccc3C3CCC4(OCCO4)C3C1c1ccccc12 (stereo unspecified)
**Result** > 100 µM

**Query** Report its TGI with IGROV1 ovarian as the test system: "CCCC1(CCC)c2cc(/C=N\O)ccc2-c2ccc(-c3ccc(C(C)(C)C)cc3)cc21"
**Result** > 100 µM

**Query** Report its TGI with IGROV1 ovarian as the test system: COc1cccc2c1C(=O)OC2c1cccc2ccccc12 (stereo unspecified)
**Result** > 100 µM

**Query** Report its TGI with IGROV1 ovarian as the test system: "COc1ccc(-n2c(=O)n(-c3ccccc3)c(=O)n2-c2ccc(OC)cc2)cc1"
**Result** > 100 µM

**Query** Report its TGI with IGROV1 ovarian as the test system: "O=C(NCc1ccco1)c1cccc(NC2=C(Cl)C(=O)N(Cc3ccccc3)C2=O)c1"
**Result** 11 µM

**Query** Report its TGI with IGROV1 ovarian as the test system: C=CCOc1ccccc1C1(O)c2ccccc2C2=NCCCN21 (stereo unspecified)
**Result** 44.7 µM

**Query** Report its TGI with IGROV1 ovarian as the test system: "O=S(=O)(O)c1ccc2c(N=Nc3ccc(Cl)cc3)c(O)ccc2c1"
**Result** > 100 µM

* * *

# Tested on: OVCAR-8 ovarian
# TEST_SUMMARY: NCI tumour cell line growth inhibition, 48 h
ASSAY_METRIC: GI50

Recorded GI50, per entry:
CHEM_SMILES	MEASURED_RESULT
O=C(NCc1ccco1)c1cccc(NC2=C(Cl)C(=O)N(Cc3ccccc3)C2=O)c1	8.57 µM
O=C(CC(=O)c1cccc(Cl)c1)c1cccc(Cl)c1	2.6 µM

**Query** Answer with the recorded GI50 for the molecule listed here: "N#Cc1c(N)nc(NCc2ccccc2)c(C#N)c1-c1ccc(Cl)cc1Cl"
**Result** > 67 µM
